Where do these numbers come from? They come from the supplement of paper PMC6555819.

- Test system: VDR:RXRa (NR concentration 270 nM, RXRa partner concentration 90 nM)
- Method: PBM binding z-score (relative to random genomic background probes); higher = stronger binding; sequences stand for … in GC…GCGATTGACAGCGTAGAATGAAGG
Experimental endpoint: PBM binding z-score
Lab note: jot down the number only; don't add units.

Examples with answers:
Give its PBM binding z-score value. Item: "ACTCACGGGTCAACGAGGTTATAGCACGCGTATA"
7.63

Give the measured PBM binding z-score of "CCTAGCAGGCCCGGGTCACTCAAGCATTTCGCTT" .
1.43

Using the record for "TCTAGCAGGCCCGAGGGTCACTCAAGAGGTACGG" , report its PBM binding z-score.
1.14

Can you share its PBM binding z-score? I mean this sequence: "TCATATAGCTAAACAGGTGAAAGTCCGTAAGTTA"
0.43

Entry "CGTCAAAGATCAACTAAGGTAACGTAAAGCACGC" : reported PBM binding z-score = ?
0.78

Next:
So what's the measured PBM binding z-score for this one? "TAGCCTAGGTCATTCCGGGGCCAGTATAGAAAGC"
2.94

Suppose we examine the sequence "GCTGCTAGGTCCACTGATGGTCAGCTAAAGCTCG" ; what PBM binding z-score value has been reported?
-0.609

Need PBM binding z-score of "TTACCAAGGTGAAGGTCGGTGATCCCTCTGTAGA" , thanks.
0.428

====

- System: PPARg:RXRa 30nM:10nM, anti-RXR (NR concentration 30 nM, RXRa partner concentration 10 nM)
- Method: PBM binding z-score (relative to random genomic background probes); higher = stronger binding; sequences stand for … in GC…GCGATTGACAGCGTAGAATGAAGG
Experimental endpoint: PBM binding z-score

Solved cases (10 shown):
Consider the sequence shown here: "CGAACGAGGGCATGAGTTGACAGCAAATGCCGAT" What is its recorded PBM binding z-score?
-0.213

What measured PBM binding z-score goes with "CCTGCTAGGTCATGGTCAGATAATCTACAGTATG" ?
0.675

Would you kindly share the measured PBM binding z-score for "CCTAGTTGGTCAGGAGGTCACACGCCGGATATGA" ?
1.69

Which value of PBM binding z-score has been reported for "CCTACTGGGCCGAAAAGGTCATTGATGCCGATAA" in the records?
0.611

What does the data say about its PBM binding z-score? Entry: "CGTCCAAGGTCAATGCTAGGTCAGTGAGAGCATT"
2.14

Which PBM binding z-score reading was recorded for the sequence "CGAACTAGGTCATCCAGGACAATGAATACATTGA" ?
4.07

Reported PBM binding z-score, sequence "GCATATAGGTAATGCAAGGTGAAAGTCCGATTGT" : ____
0.286

Find the recorded PBM binding z-score belonging to "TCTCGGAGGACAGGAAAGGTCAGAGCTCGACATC" and report it.
2.51

Which PBM binding z-score is listed for "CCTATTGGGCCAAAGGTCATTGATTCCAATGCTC" ?
10.5

Entry under review: "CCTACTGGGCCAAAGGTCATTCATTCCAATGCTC" . Reported PBM binding z-score?
10.6

Continuing:
Looking for the measured PBM binding z-score of "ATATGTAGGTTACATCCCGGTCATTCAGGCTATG" , can you help?
1.8

Bench note: what PBM binding z-score did "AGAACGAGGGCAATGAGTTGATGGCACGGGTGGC" show?
-0.239

====

- Test system: PPARg:RXRa (NR concentration 180 nM, RXRa partner concentration 90 nM)
- Method: PBM binding z-score (relative to random genomic background probes); higher = stronger binding; sequences stand for … in GC…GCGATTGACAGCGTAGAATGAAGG
Experimental endpoint: PBM binding z-score
I only need the number, thanks.

Would you please look over these solved cases?
Report PBM binding z-score for "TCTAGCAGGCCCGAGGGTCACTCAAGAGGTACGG" please.
0.501

Request the reported PBM binding z-score associated with "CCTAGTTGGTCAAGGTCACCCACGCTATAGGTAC"
2.93

Which PBM binding z-score reading was recorded for the sequence "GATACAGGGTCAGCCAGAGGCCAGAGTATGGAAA" ?
4.13

Request the reported PBM binding z-score associated with "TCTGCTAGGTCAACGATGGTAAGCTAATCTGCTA"
2.51

Item "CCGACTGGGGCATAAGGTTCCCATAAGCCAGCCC" has what recorded PBM binding z-score?
0.836

***
// returns reported PBM binding z-score for input "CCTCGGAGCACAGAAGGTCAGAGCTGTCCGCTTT"
-0.336

Using the record for "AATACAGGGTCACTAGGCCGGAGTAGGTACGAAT" , report its PBM binding z-score.
6.6

====

- System: RXRa DBDmut IVT, anti-RXR (DBD mutation: RXRa K156A/R161A, NR concentration 90 nM)
- Method: PBM binding z-score (relative to random genomic background probes); higher = stronger binding; sequences stand for … in GC…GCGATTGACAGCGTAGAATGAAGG
Experimental endpoint: PBM binding z-score
When you answer, write just the number.

Reference set, count: 5
If you can, please state the reported PBM binding z-score value of "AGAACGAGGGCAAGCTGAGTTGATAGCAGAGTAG" .
2.1

Query: PBM binding z-score; subject: "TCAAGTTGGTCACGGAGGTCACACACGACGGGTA"
1.53

Suppose we examine the sequence "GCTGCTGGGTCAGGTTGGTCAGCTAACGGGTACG" ; what PBM binding z-score value has been reported?
-0.0156

Fill in: PBM binding z-score of "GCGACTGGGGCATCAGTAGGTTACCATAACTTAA" is ___
0.0645

Consider the sequence "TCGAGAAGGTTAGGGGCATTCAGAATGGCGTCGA" and give its measured PBM binding z-score.
0.703

Read the next record carefully.
Any idea what its PBM binding z-score is? The sequence is "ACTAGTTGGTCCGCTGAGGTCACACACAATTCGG"
1.37

====

The following sequences are listed with their measured PBM binding z-score values.
- Test system: PPARa:RXRa (NR concentration 270 nM, RXRa partner concentration 90 nM)
- Method: PBM binding z-score (relative to random genomic background probes); higher = stronger binding; sequences stand for … in GC…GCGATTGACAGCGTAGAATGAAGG
Give the figure by itself; no unit, no explanation.

Some entries whose results are on file:
Query PBM binding z-score on PPARa:RXRa (NR concentration 270 nM, RXRa partner concentration 90 nM) for "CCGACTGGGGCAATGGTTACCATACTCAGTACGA"
0.901

Write down the reported PBM binding z-score of "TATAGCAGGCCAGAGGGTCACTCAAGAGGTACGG" , test system: PPARa:RXRa (NR concentration 270 nM, RXRa partner concentration 90 nM).
2.59

More entries:
Lookup: PBM binding z-score / PPARa:RXRa (NR concentration 270 nM, RXRa partner concentration 90 nM) / "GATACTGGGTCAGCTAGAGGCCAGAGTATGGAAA"
2.91

Hi! What's the reported PBM binding z-score for "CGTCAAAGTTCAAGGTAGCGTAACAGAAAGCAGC" on PPARa:RXRa (NR concentration 270 nM, RXRa partner concentration 90 nM)?
4.56

Lab note: need PBM binding z-score with PPARa:RXRa (NR concentration 270 nM, RXRa partner concentration 90 nM) for entry "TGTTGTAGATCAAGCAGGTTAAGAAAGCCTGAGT" , please look it up.
0.282

====

- System: PPARg:RXRa 90nM:30nM, anti-RXR (NR concentration 90 nM, RXRa partner concentration 30 nM)
- Method: PBM binding z-score (relative to random genomic background probes); higher = stronger binding; sequences stand for … in GC…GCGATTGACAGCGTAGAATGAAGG
Experimental endpoint: PBM binding z-score
Respond using a number only.

Report PBM binding z-score for "GCATATAGGTAATATAAGGTGAAAGTCCGATTGT" please.
1.16

Field request: PBM binding z-score | item: "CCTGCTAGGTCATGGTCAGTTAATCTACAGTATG"
2.13

Which PBM binding z-score reading was recorded for the sequence "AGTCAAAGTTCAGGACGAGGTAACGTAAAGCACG" ?
3.94

Quick check: PBM binding z-score of "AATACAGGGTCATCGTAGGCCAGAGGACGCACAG" ?
4.94

====

- System: RARb:RXRa (NR concentration 270 nM, RXRa partner concentration 90 nM)
- Method: PBM binding z-score (relative to random genomic background probes); higher = stronger binding; sequences stand for … in GC…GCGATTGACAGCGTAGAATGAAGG
Entries and their PBM binding z-score values follow.
Reply briefly: the number, and no unit.

# count of solved cases: 10
Quick check: PBM binding z-score of "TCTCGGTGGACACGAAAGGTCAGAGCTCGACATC" ?
3.86

What does the data say about its PBM binding z-score? Entry: "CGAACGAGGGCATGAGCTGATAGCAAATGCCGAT"
1.87

If you can, please state the reported PBM binding z-score value of "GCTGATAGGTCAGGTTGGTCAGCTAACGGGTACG" .
3.8

# input sequence: "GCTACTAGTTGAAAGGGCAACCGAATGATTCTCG" ; wanted: its PBM binding z-score
1.95

Suppose we examine the sequence "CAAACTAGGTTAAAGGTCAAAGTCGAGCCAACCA" ; what PBM binding z-score value has been reported?
4.76

What does the data say about its PBM binding z-score? Entry: "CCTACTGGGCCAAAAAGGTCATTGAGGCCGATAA"
3.8

Which PBM binding z-score is listed for "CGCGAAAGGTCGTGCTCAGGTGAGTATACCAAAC" ?
4.18

Which measured PBM binding z-score value corresponds to "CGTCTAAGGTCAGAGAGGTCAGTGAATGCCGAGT" ?
5.56

Name the reported PBM binding z-score value associated with the sequence "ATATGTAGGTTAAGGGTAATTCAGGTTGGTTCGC"
1.69

PBM binding z-score for "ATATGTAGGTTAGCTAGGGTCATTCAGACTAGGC" ?
2.71

Further cases:
Would you mind telling me what PBM binding z-score value was observed for "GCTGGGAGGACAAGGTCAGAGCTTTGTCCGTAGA" ?
3.41

// lookup PBM binding z-score for "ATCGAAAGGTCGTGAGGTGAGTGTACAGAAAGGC"
4.04
